Reference source for all entries: patent US8513232B2

Recorded melting point for the following compounds
METRIC NAME: melting point

{"columns": ["COMPOUND", "RESULT"],
 "data": [
  ["O=C1CCN(C(=O)c2ccc(-c3ccc4c(c3)CCC3(CCN(C5CCC5)CC3)O4)cc2)CC1", "82.9 to 84.3 °C"],
  ["COCCN(C)C(=O)c1ccc(-c2ccc3c(c2)COC2(CCN(C4CCC4)CC2)O3)cc1", "232 to 234 °C"],
  ["COCc1cc(-c2ccc3c(c2)COC2(CCN(C4CCC4)CC2)O3)c[nH]c1=O", "212 to 214 °C"],
  ["c1ccc(OC2CCN(c3ccc4c(c3)CCC3(CCN(C5CCC5)CC3)O4)CC2)nc1", "240 to 245 °C"],
  ["CCCn1cc(-c2ccc3c(c2)CCC2(CCN(C4CCC4)CC2)O3)cn1", "97 to 99 °C"],
  ["CC(C)(C)OC(=O)N1CCC(Oc2ccc3c(c2)CCC2(CCN(C4CCC4)CC2)O3)CC1", "118 to 120 °C"],
  ["OC1(c2ccc3c(c2)COC2(CCN(C4CCC4)CC2)O3)CCSC1 (centres unmarked)", "125 to 126 °C"],
  ["O=c1cc(-c2ccc3c(c2)COC2(CCN(C4CCC4)CC2)O3)ccn1C(F)F", "175 to 177 °C"]
]}

---

# ASSAY TARGET: rat histamine H3 receptor (Rattus norvegicus, UniProt Q9QYN8)
# Construct: encoding the entire 445-amino-acid rat histamine H3 receptor; expressed in transfected cells; membrane preparation
# Sequence (Q9QYN8 whole entry): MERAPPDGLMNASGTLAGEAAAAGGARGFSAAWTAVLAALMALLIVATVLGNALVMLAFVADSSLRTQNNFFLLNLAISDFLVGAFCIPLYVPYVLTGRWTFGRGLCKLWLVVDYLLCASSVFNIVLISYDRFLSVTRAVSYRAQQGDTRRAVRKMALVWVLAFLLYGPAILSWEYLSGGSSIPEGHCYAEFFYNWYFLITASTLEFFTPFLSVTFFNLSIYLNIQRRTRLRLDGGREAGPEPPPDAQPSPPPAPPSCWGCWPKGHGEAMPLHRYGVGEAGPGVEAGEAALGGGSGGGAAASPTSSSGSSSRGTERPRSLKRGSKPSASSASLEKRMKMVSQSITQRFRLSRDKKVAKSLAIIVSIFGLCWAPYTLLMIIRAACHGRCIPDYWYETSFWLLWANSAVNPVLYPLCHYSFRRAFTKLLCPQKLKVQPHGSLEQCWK
# ASSAY TEXT: Rat H3 radioligand binding ([3H]-N-alpha-methylhistamine, SPA)
# CONDITION CONTEXT: Rat H3 binding, Table B, Examples 136-362; read-out: rat H3 binding Ki
Attribute: Ki
METRIC NAME: Ki

{"columns": ["SMILES STRING", "RESULT"],
 "data": [
  ["O=C(c1ccccc1Nc1ccc2c(c1)COC1(CCN(C3CCC3)CC1)O2)N1CCOCC1", "200 to 1000 nM"],
  ["CN(C)C(=O)c1ccc(N2CCN(c3ccc4c(c3)COC3(CCN(C5CCC5)CC3)O4)C2=O)cc1", "< 200 nM"],
  ["Cc1nn(C)c(C)c1-c1ccc2c(c1)CCC1(CCN(C3CCC3)CC1)O2", "< 200 nM"],
  ["CN(C)C(=O)NC1CCN(c2ccc3c(c2)COC2(CCN(C4CCC4)CC2)O3)CC1", "< 200 nM"]
]}

---

# ASSAY TARGET: human H3 receptor (Homo sapiens, UniProt Q9Y5N1)
# Construct: expressed in transfected cells
# Sequence (Q9Y5N1 whole entry): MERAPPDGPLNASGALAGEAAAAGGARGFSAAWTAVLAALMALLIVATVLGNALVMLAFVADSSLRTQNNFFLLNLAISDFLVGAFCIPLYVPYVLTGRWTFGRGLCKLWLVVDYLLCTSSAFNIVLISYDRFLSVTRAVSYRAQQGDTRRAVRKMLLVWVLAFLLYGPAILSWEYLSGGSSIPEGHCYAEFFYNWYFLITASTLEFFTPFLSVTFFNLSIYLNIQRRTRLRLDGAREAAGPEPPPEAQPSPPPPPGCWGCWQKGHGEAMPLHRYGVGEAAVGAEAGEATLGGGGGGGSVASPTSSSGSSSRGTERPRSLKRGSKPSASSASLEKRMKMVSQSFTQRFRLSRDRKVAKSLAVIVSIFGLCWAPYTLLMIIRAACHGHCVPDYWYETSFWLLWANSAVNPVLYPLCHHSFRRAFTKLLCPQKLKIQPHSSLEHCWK
# ASSAY TEXT: Human H3 radioligand binding ([3H]-N-alpha-methylhistamine, SPA)
# CONDITION CONTEXT: Table C; human H3 binding; read-out: Human H3 Ki
pKi: −log10 of the molar value.
METRIC NAME: pKi

{"columns": ["SMILES STRING", "METRIC NAME", "RESULT"],
 "data": [
  ["CNC(=O)c1ccc(Oc2ccc3c(c2)CCC2(CCN(C4CCC4)CC2)O3)nc1", "pKi", "> 6.70"],
  ["O=S1(=O)CCN(c2ccc3c(c2)CCC2(CCN(C4CCC4)CC2)O3)CC1", "pKi", "> 6.70"],
  ["O=C(C1CC1)N1CCC(Oc2ccc3c(c2)CCC2(CCN(C4CCC4)CC2)O3)CC1", "pKi", "> 6.70"],
  ["CN(C)C(=O)C1CCN(c2ccc3c(c2)CCC2(CCN(C4CCC4)CC2)O3)CC1", "pKi", "> 6.70"],
  ["COC(=O)c1ccc(N2CCN(c3ccc4c(c3)CCC3(CCN(C5CCC5)CC3)O4)CC2)nc1", "pKi", "> 6.70"],
  ["c1cc2c(cc1N1CCC3(CC1)OCCO3)CCC1(CCN(C3CCC3)CC1)O2", "pKi", "> 6.70"],
  ["COC1CCN(c2ccc3c(c2)CCC2(CCN(C4CCC4)CC2)O3)CC1", "pKi", "> 6.70"],
  ["CS(=O)(=O)N1CCN(c2ccc3c(c2)CCC2(CCN(C4CCC4)CC2)O3)CC1", "pKi", "> 6.70"],
  ["Cn1cc2c(n1)CCN(c1ccc3c(c1)CCC1(CCN(C4CCC4)CC1)O3)C2", "pKi", "> 6.70"],
  ["O=c1ccc(N2CCN(c3ccc4c(c3)CCC3(CCN(C5CCC5)CC3)O4)CC2)n[nH]1", "pKi", "> 6.70"],
  ["FC1(F)CCN(c2ccc3c(c2)CCC2(CCN(C4CCC4)CC2)O3)CC1", "pKi", "> 6.70"],
  ["FC1CCN(c2ccc3c(c2)CCC2(CCN(C4CCC4)CC2)O3)CC1", "pKi", "> 6.70"],
  ["CN(C)C(=O)N1CCN(c2ccc3c(c2)CCC2(CCN(C4CCC4)CC2)O3)CC1", "pKi", "> 6.70"],
  ["c1cc2c(cc1N1CCC(OCC3CC3)CC1)CCC1(CCN(C3CCC3)CC1)O2", "pKi", "> 6.70"],
  ["CCN(CC)C(=O)N1CCN(c2ccc3c(c2)CCC2(CCN(C4CCC4)CC2)O3)CC1", "pKi", "> 6.70"],
  ["CNC(=O)c1ccc(N2CCN(c3ccc4c(c3)CCC3(CCN(C5CCC5)CC3)O4)CC2)nc1", "pKi", "> 6.70"],
  ["F[C@@H]1CCN(c2ccc3c(c2)CCC2(CCN(C4CCC4)CC2)O3)C1", "pKi", "> 6.70"],
  ["O=C(C1CCN(c2ccc3c(c2)CCC2(CCN(C4CCC4)CC2)O3)CC1)N1CCCC1", "pKi", "> 6.70"],
  ["Clc1ccc(-c2ccc3c(c2)CCC2(CCN(C4CCC4)CC2)O3)cn1", "pKi", "> 6.70"],
  ["COc1cccc(N2CCN(c3ccc4c(c3)CCC3(CCN(C5CCC5)CC3)O4)CC2)n1", "pKi", "> 6.70"],
  ["c1ccc(N2CCN(c3ccc4c(c3)CCC3(CCN(C5CCC5)CC3)O4)CC2)cc1", "pKi", "> 6.70"],
  ["c1cc2c(cc1N1CCC1)CCC1(CCN(C3CCC3)CC1)O2", "pKi", "> 6.70"],
  ["c1ccc(CN2CCN(c3ccc4c(c3)CCC3(CCN(C5CCC5)CC3)O4)CC2)cc1", "pKi", "> 6.70"],
  ["c1cc2c(cc1N1CCOCC1)CCC1(CCN(C3CCC3)CC1)O2", "pKi", "> 6.70"],
  ["CNC(=O)c1ccc(OC2CCN(c3ccc4c(c3)CCC3(CCN(C5CCC5)CC3)O4)CC2)nc1", "pKi", "> 6.70"],
  ["CCOC1CCN(c2ccc3c(c2)COC2(CCN(C4CCC4)CC2)O3)CC1", "pKi", "> 6.70"],
  ["NC(=O)c1ccc(Oc2ccc3c(c2)CCC2(CCN(C4CCC4)CC2)O3)nc1", "pKi", "> 6.70"],
  ["O=C(C1CCN(c2ccc3c(c2)CCC2(CCN(C4CCC4)CC2)O3)CC1)N1CCOCC1", "pKi", "> 6.70"],
  ["c1cnc(N2CCN(c3ccc4c(c3)CCC3(CCN(C5CCC5)CC3)O4)CC2)nc1", "pKi", "> 6.70"],
  ["c1cnc(N2CCN(c3ccc4c(c3)CCC3(CCN(C5CCC5)CC3)O4)CC2)cn1", "pKi", "> 6.70"],
  ["O=C(C1CC1)N1CCN(c2ccc3c(c2)CCC2(CCN(C4CCC4)CC2)O3)CC1", "pKi", "> 6.70"],
  ["c1cnc(Oc2ccc3c(c2)CCC2(CCN(C4CCC4)CC2)O3)cn1", "pKi", "> 6.70"],
  ["c1cc2c(cc1N1CCCCC1)CCC1(CCN(C3CCC3)CC1)O2", "pKi", "> 6.70"],
  ["CS(=O)(=O)N1CCC(Oc2ccc3c(c2)CCC2(CCN(C4CCC4)CC2)O3)CC1", "pKi", "> 6.70"]
]}

---

# ASSAY TARGET: rat histamine H3 receptor (Rattus norvegicus)
# Construct: encoding the entire 445-amino-acid rat histamine H3 receptor; expressed in transfected cells; membrane preparation
# ASSAY TEXT: Rat H3 radioligand binding ([3H]-N-alpha-methylhistamine, SPA)
# CONDITION CONTEXT: Rat H3 binding, Table B, Examples 136-362; read-out: rat H3 binding Ki
pKi: −log10 of the molar value.
METRIC NAME: pKi

{"columns": ["SMILES STRING", "ASSAY TARGET", "METRIC NAME", "RESULT"],
 "data": [
  ["O=C(Nc1ccc2c(c1)COC1(CCN(C3CCC3)CC1)O2)c1ccc2[nH]ncc2c1", "rat histamine H3 receptor (Rattus norvegicus)", "pKi", "> 6.70"],
  ["CNC(=O)c1cccc(-c2ccc3c(c2)CCOC2(CCN(C4CCC4)CC2)O3)c1", "rat histamine H3 receptor (Rattus norvegicus)", "pKi", "< 6.00"],
  ["CNC(=O)c1ccc(Oc2ccc3c(c2)CCC2(CCN(C4CCC4)CC2)O3)cc1", "rat histamine H3 receptor (Rattus norvegicus)", "pKi", "> 6.70"],
  ["CNc1cc(C(=O)Nc2ccc3c(c2)COC2(CCN(C4CCC4)CC2)O3)ccn1", "rat histamine H3 receptor (Rattus norvegicus)", "pKi", "> 6.70"],
  ["CNC(=O)N1CCN(c2ccc3c(c2)COC2(CCN(C4CCC4)CC2)O3)C(=O)C1", "rat histamine H3 receptor (Rattus norvegicus)", "pKi", "6.00 to 6.70"],
  ["CNC(=O)c1ccc(-c2cc3c(cc2Cl)OC2(CCN(C4CCC4)CC2)OC3)cc1F", "rat histamine H3 receptor (Rattus norvegicus)", "pKi", "> 6.70"],
  ["O=C(N[C@@H]1CCOC1)c1ccc(-c2ccc3c(c2)COC2(CCN(C4CCC4)CC2)O3)cc1", "rat histamine H3 receptor (Rattus norvegicus)", "pKi", "> 6.70"],
  ["O=C(NC1CCN(c2ccc3c(c2)COC2(CCN(C4CCC4)CC2)O3)CC1)N1CCCC1", "rat histamine H3 receptor (Rattus norvegicus)", "pKi", "> 6.70"],
  ["N#Cc1ccc(C(=O)Nc2ccc3c(c2)CCC2(CCN(C4CCC4)CC2)O3)cc1", "rat histamine H3 receptor (Rattus norvegicus)", "pKi", "> 6.70"],
  ["Cc1cnccc1C(=O)Nc1ccc2c(c1)COC1(CCN(C3CCC3)CC1)O2", "rat histamine H3 receptor (Rattus norvegicus)", "pKi", "> 6.70"],
  ["CS(=O)(=O)N1CCC(COc2ccc3c(c2)CCC2(CCN(C4CCC4)CC2)O3)CC1", "rat histamine H3 receptor (Rattus norvegicus)", "pKi", "> 6.70"],
  ["COCC(C)(C)NC(=O)c1ccc(-c2ccc3c(c2)CCC2(CCN(C4CCC4)CC2)O3)cc1", "rat histamine H3 receptor (Rattus norvegicus)", "pKi", "> 6.70"],
  ["O=C(NCCO)c1ccc(-c2ccc3c(c2)CCC2(CCN(C4CCC4)CC2)O3)cc1F", "rat histamine H3 receptor (Rattus norvegicus)", "pKi", "> 6.70"],
  ["O=C(c1ccc(Nc2ccc3c(c2)COC2(CCN(C4CCC4)CC2)O3)cc1)N1CC[C@@H](O)C1", "rat histamine H3 receptor (Rattus norvegicus)", "pKi", "> 6.70"],
  ["c1cc(CNc2ccc3c(c2)COC2(CCN(C4CCC4)CC2)O3)ccn1", "rat histamine H3 receptor (Rattus norvegicus)", "pKi", "> 6.70"],
  ["O=C1C[C@@H](O)CN1c1ccc2c(c1)COC1(CCN(C3CCC3)CC1)O2", "rat histamine H3 receptor (Rattus norvegicus)", "pKi", "> 6.70"],
  ["O=C(Nc1ccc2c(c1)COC1(CCN(C3CCC3)CC1)O2)c1cncs1", "rat histamine H3 receptor (Rattus norvegicus)", "pKi", "> 6.70"]
]}
